biological target: Cytochrome P450 1A2 (Homo sapiens); experiment: Cytochrome panel assay with activity outcomes; conditions: recombinant CYP, pro-luciferin dealkylation, luminescence, p450-cyp1a2; series mostly up to 57.1 µM
Hit rate of the full screen: of about 16,000 compounds, about 5,700 (36%) were called active. Another 24% or so got no clear call; they are omitted. This is one part of the list.

compound: CCNc1ncc2nc(CCc3ccccc3)c(=O)n(-c3ccccc3)c2n1
assay_target: Cytochrome P450 1A2 (Homo sapiens)
AC50: 1260 nM (active)

compound: CCNc1ncc2nc(C)c(=O)n(CCC#N)c2n1
assay_target: Cytochrome P450 1A2 (Homo sapiens)
AC50: 12600 nM (active)

compound: CN(Cc1ccco1)c1cc(-c2ccoc2)ncn1
assay_target: Cytochrome P450 1A2 (Homo sapiens)
AC50: inactive

compound: COc1cc(C2C(C#N)=C(N)OC3=C2C(=O)CCC3)cc(OC)c1OC(=O)N1CCOCC1 (stereo not drawn)
assay_target: Cytochrome P450 1A2 (Homo sapiens)
AC50: inactive

compound: CN(C)c1ncc2nc(-c3cc(F)cc(F)c3)c(=O)n(CCc3ccccc3)c2n1
assay_target: Cytochrome P450 1A2 (Homo sapiens)
AC50: inactive

compound: CCn1c(CCNC(=O)c2ccccc2Cl)n[nH]c1=S
assay_target: Cytochrome P450 1A2 (Homo sapiens)
AC50: inactive

compound: CCC(C)NC(=O)NC(=O)N(C1CCCCC1)S(C)(=O)=O (stereo not drawn)
assay_target: Cytochrome P450 1A2 (Homo sapiens)
AC50: inactive

compound: Cc1nc2ncnn2c(C)c1CCC(=O)NCc1ccco1
assay_target: Cytochrome P450 1A2 (Homo sapiens)
AC50: inactive

compound: O=C(O)c1cc2cc(Cc3cccnc3)ccc2o1
assay_target: Cytochrome P450 1A2 (Homo sapiens)
AC50: inactive

compound: O=c1c2ccccc2nc2n1C(CSc1ccc(F)cc1)CN2 (stereo not drawn)
assay_target: Cytochrome P450 1A2 (Homo sapiens)
AC50: inactive

compound: Cc1ccc(-n2c(C)nc3c(cnn3-c3ccc(F)cc3)c2=O)cc1C
assay_target: Cytochrome P450 1A2 (Homo sapiens)
AC50: 2510 nM (active)

compound: CC(=O)c1sc(NC(=O)C(C)C)nc1C
assay_target: Cytochrome P450 1A2 (Homo sapiens)
AC50: 10000 nM (active)

compound: O=C(NCCCCc1ccccc1)C1CC(c2ccccc2[N+](=O)[O-])=NO1 (stereo not drawn)
assay_target: Cytochrome P450 1A2 (Homo sapiens)
AC50: 2240 nM (active)

compound: CCOc1cc2[nH]c(=S)n(CCCC(=O)NCc3ccco3)c(=O)c2cc1OCC
assay_target: Cytochrome P450 1A2 (Homo sapiens)
AC50: inactive

compound: CCNc1ncc2nc(-c3cn(C)c4ccccc34)c(=O)n(C)c2n1
assay_target: Cytochrome P450 1A2 (Homo sapiens)
AC50: 100 nM (active)

compound: Clc1ccc2oc(-c3cccnc3)nc2c1
assay_target: Cytochrome P450 1A2 (Homo sapiens)
AC50: 1410 nM (active)

compound: CCc1ccc2c(c1)c(N=NC1=NC(=O)CS1)c(O)n2CC
assay_target: Cytochrome P450 1A2 (Homo sapiens)
AC50: 1410 nM (active)

compound: CN(C)c1ccc(-c2cncnc2Nc2ccc(F)cc2)cc1
assay_target: Cytochrome P450 1A2 (Homo sapiens)
AC50: 501 nM (active)

compound: O=C(NCC1CCCO1)C(c1cccnc1)N(C(=O)Cc1cccs1)c1ccccc1 (stereo not drawn)
assay_target: Cytochrome P450 1A2 (Homo sapiens)
AC50: 12600 nM (active)

compound: O=C(O)C1CCCCC1C(=O)Nc1ccccc1Cl (stereo not drawn)
assay_target: Cytochrome P450 1A2 (Homo sapiens)
AC50: inactive

compound: CN(C)c1ncc2nc(-c3ccccc3)c(=O)n(CCc3ccccc3)c2n1
assay_target: Cytochrome P450 1A2 (Homo sapiens)
AC50: 20000 nM (active)

compound: CNC(=O)/C=C1\NC(C)(C)Cc2c1ccc1ccccc21
assay_target: Cytochrome P450 1A2 (Homo sapiens)
AC50: 6310 nM (active)

compound: C=CCNC(=O)c1ccc2nc(-c3ccccc3)c(-c3ccccc3)nc2c1
assay_target: Cytochrome P450 1A2 (Homo sapiens)
AC50: 15800 nM (active)
